Attribution: paper PMC5540273

System: SRPK2
Run Parameters: concentration: 1 μM, replicates: in singlicate; n = 1;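 note: KINOMEscan kinase panel screen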
Measurement Type: %Inh (%)
Respond with the bare value in %.

Task: Give its %Inh value. Item: "Cc1ccc(Oc2ccc(Nc3ncnc4cc[nH]c34)cc2C)cn1"
Result: 0

Task: Give its %Inh value. Item: "CCn1c(-c2ccoc2)nc2cnccc21"
Result: 18

Task: Give its %Inh value. Item: "COc1cc2ncn(-c3cc(OCCCc4ccccc4)c(C(N)=O)s3)c2cc1OC"
Result: 0

Task: Give its %Inh value. Item: "Cn1c(=O)c(F)c(Nc2ccc(I)cc2F)c2c(=O)n(OC[C@H](O)CO)cnc21"
Result: 13

Task: Give its %Inh value. Item: "COc1cccc(-n2cnc3c(N)ncnc32)c1"
Result: 6

----------
System: RIPK2
Run Parameters: concentration: 1 μM, replicates: in singlicate; n = 1
Measurement Type: %Inh (%)
Respond with the bare value in %.

Task: Observed %Inh on RIPK2 for "Cn1c(=O)c(F)c(Nc2ccc(I)cc2F)c2c(=O)n(OC[C@H](O)CO)cnc21" , please.
Result: 15

Task: Observed %Inh on RIPK2 for "Cc1nnc(-c2ccc(C)c(-c3ccc(C(=O)O)cc3)c2)o1" , please.
Result: 0

Task: Observed %Inh on RIPK2 for "O=C(NCc1cccs1)c1cc(C(=O)c2c(Cl)cccc2Cl)c[nH]1" , please.
Result: 8

Task: Observed %Inh on RIPK2 for "COc1cc(OC)cc(-c2cc3cnc(N)nc3nc2NC(=O)NC(C)(C)C)c1" , please.
Result: 0

Task: Observed %Inh on RIPK2 for "Nc1ncnc2c1ncn2-c1ccc(Cl)cc1" , please.
Result: 2

----------
Tested on: RSK3(Kin.Dom.1-N-terminal)
Construct: gene RPS6KA2
Run Parameters: concentration: 1 μM, replicates: in singlicate; n = 1
Measurement Type: %Inh (%)
Respond with the bare value in %.

Task: Give its %Inh value. Item: "COc1ccc(-c2coc3ccc(-c4nnc(SCc5cccc(C#N)c5)o4)cc23)cc1"
Result: 16

Task: Give its %Inh value. Item: O=C(NCCNc1ccnc(Nc2ccc(F)cc2)n1)Nc1ccc2c(c1)OCO2 [GSK1379882]
Result: 0

Task: Give its %Inh value. Item: CCS(=O)(=O)c1ccc(OC)c(Nc2ncc(-c3ccc(F)cc3)o2)c1.Cl [GW591947]
Result: 0

Task: Give its %Inh value. Item: CCn1c(-c2ccoc2)nc2cnccc21 [SB-733887]
Result: 0

Task: Give its %Inh value. Item: "CC(C)(C)c1ccc(C(=O)Nc2cn3cc(-c4ccccc4)ccc3n2)cc1"
Result: 24

Task: Give its %Inh value. Item: O=C(NCc1cccs1)c1cc(C(=O)c2c(Cl)cccc2Cl)c[nH]1 [GW823670]
Result: 0

Task: Give its %Inh value. Item: Nc1nccc2scc(-c3ccc4c(c3)CCN4C(=O)Cc3ccccc3)c12 [GSK2576924]
Result: 8

Task: Give its %Inh value. Item: "Cn1c(=O)c(F)c(Nc2ccc(I)cc2F)c2c(=O)n(OC[C@H](O)CO)cnc21"
Result: 11

Task: Give its %Inh value. Item: Cc1cccc(-c2nc(Nc3ccc4c(cnn4C)c3)c3ccccc3n2)n1 [GW876731]
Result: 24

----------
System: PCTK1
Construct: gene CDK16
Run Parameters: concentration: 1 μM, replicates: in singlicate; n = 1
Would you kindly list %Inh for each of these compounds?
Respond with the bare value in %.

Task: Give its %Inh value. Item: "COc1ccc(-c2coc3ccc(-c4nnc(SCc5cccc(C#N)c5)o4)cc23)cc1"
Result: 0

Task: Give its %Inh value. Item: "CCC(=O)c1c(-c2ccccc2)c2cc(Cl)ccc2c(=O)n1Cc1ccc(C(=O)O)cc1"
Result: 0

Task: Give its %Inh value. Item: "COc1ccc(-n2cnc3c(N)ncnc32)cc1"
Result: 0

Task: Give its %Inh value. Item: "COC(=O)c1c(-c2ccccc2)c2cc(Br)ccc2c(=O)n1Cc1ccc(NC(=O)CCC(=O)O)cc1"
Result: 15

Task: Give its %Inh value. Item: "COc1ccc(-c2cc3c(C)nc(N)nc3n([C@H]3CC[C@H](O)CC3)c2=O)cn1"
Result: 0

Task: Give its %Inh value. Item: "Nc1nc(N)c2nc(-c3ccccc3)[nH]c2n1"
Result: 5

Task: Give its %Inh value. Item: "COc1cccc(C2=C(N(C)c3ccccc3)C(=O)NC2=O)c1"
Result: 0

Task: Give its %Inh value. Item: "Cc1cc(Nc2nc(-c3cccc(C)n3)nc3ccccc23)ccn1"
Result: 0

Task: Give its %Inh value. Item: "CCCC(=O)Nc1n[nH]c2ncc(-c3cccc4ccccc34)cc12"
Result: 27

Task: Give its %Inh value. Item: "CCn1c(-c2ccoc2)nc2cnccc21"
Result: 9

Task: Give its %Inh value. Item: "COc1cc(Nc2ccnc3ccc(C(F)(F)F)cc23)cc(OC)c1OC"
Result: 0

Task: Give its %Inh value. Item: "Cl.c1ccc(Cn2cnc3cc(Nc4ncnc5ccccc45)ccc32)cc1"
Result: 0

Task: Give its %Inh value. Item: "O=C(Nc1n[nH]c2cc(-c3ccccc3F)ccc12)C1CC1"
Result: 0

Task: Give its %Inh value. Item: "Nc1ncnc2c1ncn2-c1ccc(Cl)cc1"
Result: 0

Task: Give its %Inh value. Item: "CN1C(=O)C(Nc2cc(Cl)c(O)c(Cl)c2)=C(c2ccc(Cl)cc2)C1=O"
Result: 0

Task: Give its %Inh value. Item: "CCc1ccc(-c2ccc3c(c2)-c2nn(C)cc2S(=O)(=O)N3C)cc1"
Result: 0

Task: Give its %Inh value. Item: "FC(F)(F)c1ccc(-c2ncn(CCCN3CCOCC3)c2-c2ccncc2)cc1"
Result: 10

Task: Give its %Inh value. Item: "COc1cccc(C2=C(Nc3cccc(C(=O)O)c3)C(=O)NC2=O)c1"
Result: 0

Task: Give its %Inh value. Item: "O=C(Nc1ccc2c(c1)OCO2)NC1CCN(c2ccnc(NCc3ccc(F)cc3)n2)CC1"
Result: 0

----------
System: EPHB1
Run Parameters: concentration: 1 μM, replicates: in singlicate; n = 1
Would you kindly list %Inh for each of these molecules?
Respond with the bare value in %.

Task: Give its %Inh value. Item: "CN(C)c1cc(-c2ccc3c(N)n[nH]c3c2)nc(N)n1"
Result: 14

Task: Give its %Inh value. Item: "Cc1cccc(-c2cc(-c3c[nH]nc3-c3ccccn3)ccn2)c1"
Result: 33

Task: Give its %Inh value. Item: "COc1cc2ncn(-c3cc(OCc4ccncc4)c(C(N)=O)s3)c2cc1OC"
Result: 7

Task: Give its %Inh value. Item: COc1ccc(CNC(=O)NC2CCN(c3ccnc(Nc4ccc(F)cc4)n3)C2)cc1 (stereo not drawn)
Result: 16

Task: Give its %Inh value. Item: "CCC(=O)c1c(-c2ccccc2)c2cc(Cl)ccc2c(=O)n1Cc1cc(S(C)(=O)=O)n(CCC(C)(C)O)n1"
Result: 6

Task: Give its %Inh value. Item: "CCc1nc(-c2cccc(C)c2)c(-c2ccncc2)s1"
Result: 8

Task: Give its %Inh value. Item: CCS(=O)c1ccc(-c2coc3ccc(-c4nnc(C)o4)cc23)cc1 (stereo not drawn)
Result: 0

Task: Give its %Inh value. Item: "CN1C(=O)C(Nc2cc(Cl)c(O)c(Cl)c2)=C(c2ccc(Cl)cc2)C1=O"
Result: 0

Task: Give its %Inh value. Item: "Cc1nn2c(=O)cc(N3CCOCC3)nc2n1Cc1cccc(Cl)c1Cl"
Result: 0

----------
System: PRKCH
Run Parameters: concentration: 1 μM, replicates: in singlicate; n = 1
Measurement Type: %Inh (%)
Respond with the bare value in %.

Task: Give its %Inh value. Item: "CCn1c(-c2ccoc2)nc2cnccc21"
Result: 0

Task: Give its %Inh value. Item: "COc1cc2ncn(-c3cc(OCc4ccncc4Br)c(C(N)=O)s3)c2cc1OC"
Result: 0

Task: Give its %Inh value. Item: "C[C@@H]1CC[C@H](C(=O)NC2CCCCC2)CN1c1cc(-c2ccc3c(N)n[nH]c3c2)nc(N)n1"
Result: 34

Task: Give its %Inh value. Item: "CCC(=O)c1c(-c2ccccc2)c2cc(Cl)ccc2c(=O)n1Cc1cc(S(C)(=O)=O)n(CC(F)F)n1"
Result: 6

Task: Give its %Inh value. Item: "COc1cc2ncn(-c3cc(OCc4ccc(S(C)(=O)=O)cc4)c(C(N)=O)s3)c2cc1OC"
Result: 0

----------
System: MAP3K4
Run Parameters: concentration: 1 μM, replicates: in singlicate; n = 1
Measurement Type: %Inh (%)
Respond with the bare value in %.

Task: Give its %Inh value. Item: COc1cc(Nc2nccc(N3CCC(NC(=O)C4COc5ccccc5O4)C3)n2)cc(OC)c1OC (centres unmarked)
Result: 22

Task: Give its %Inh value. Item: "CCC(=O)c1c(-c2ccccc2)c2cc(Cl)ccc2c(=O)n1Cc1cc(S(C)(=O)=O)n(CC(F)F)n1"
Result: 9

Task: Give its %Inh value. Item: "CCc1nc(-c2cccc(C)c2)c(-c2ccncc2)s1"
Result: 0

Task: Give its %Inh value. Item: "CCC(=O)c1c(-c2ccccc2)c2cc(Cl)ccc2c(=O)n1Cc1cc(C(=O)NC2CC2)n(C)n1"
Result: 23

Task: Give its %Inh value. Item: "CCC(=O)c1c(-c2ccccc2)c2cc(Cl)ccc2c(=O)n1Cc1cc(S(C)(=O)=O)n(CCC(C)(C)O)n1"
Result: 14
